Assay: NCI Yeast Anticancer Drug Screen. Data for the rad52 strain (AID 147);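 note: 0% = growth of vehicle-treated control cultures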
Conditions: S. cerevisiae rad52 mutant growth inhibition; at 100.0 µM
Protocol: Growth inhibition of yeast strains with defined genetic alterations is measured as a screen for potential anti-cancer activity. Selected strains with alterations in DNA damage repair or cell cycle control were exposed to compounds and growth inhibition was measured relative to vehicle treated controls. The strain used in this assay is rad52
About 79,000 compounds went through this panel and 15% of them were active in at least one assay; those are over-represented in the sample as a whole. Calls of active or inactive are those of the source. Cut-off read from the data, not from the text of the source: active = growth inhibition above about 70%; inactive = the rest.
Labels: t = active, f = inactive

>>> group("OB(O)c1ccccc1C#Cc1ccccc1B(O)O")
"t"
>>> group("O=C1NC(c2c(Cl)cccc2Cl)Nc2ccccc21 (configuration not stated)")
"t"
>>> group("OC(CN1CCCCC1)c1cc(Cl)c(Cl)c(Cl)c1 (configuration not stated)")
"f"
>>> group("[Pt].c1ccc(P(CCP(c2ccccc2)c2ccccc2)CCP(c2ccccc2)c2ccccc2)cc1")
"t"
>>> group("CN(C)CCNc1cccc2sc3ccc(O)cc3c(=O)c12")
"f"
>>> group("COc1ccc(N2CN(C)CSC2=S)cc1")
"t"
>>> group("O=C1C=CC(=O)N1c1ccc(I)cc1")
"t"
>>> group("Clc1cc(-c2ccccc2)nc2ccccc12")
"t"
>>> group("Cn1c2nc3ccccc3c-2nc2ccccc21")
"t"
>>> group("CO[C@@]12[C@H](COC(N)=O)C3=C(C(=O)C(C)=C(N)C3=O)N1C[C@@H]1N[C@@H]12")
"t"
>>> group("O=NN(CCCl)C(=O)NCCCl")
"f"
>>> group("CN(N=O)c1ccc(/C=C/c2ccnc3ccccc23)cc1")
"t"

* * *

Assay: NCI Yeast Anticancer Drug Screen. Data for the sgs1 strain (AID 173);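 note: 0% = growth of vehicle-only control cultures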
Settings: S. cerevisiae sgs1 mutant, at 3.7 µM, active compounds read high
The panel holds about 79,000 compounds, 15% with a hit somewhere; the sample as a whole holds those more often. Activity calls are given as the source filed them. Cut-off read from the data, not from the text of the source: active = growth inhibition above about 70%; inactive = the rest.
Reported Property: growth inhibition

>>> reading("CCCCOC(=O)CSSCC(=O)OCCCC")
"-8% (inactive)"
>>> reading("O=C1c2ccccc2CCC1(Br)Br")
"23% (inactive)"
>>> reading("S=C1SCN(CCc2ccccc2)CN1CCc1ccccc1")
"16% (inactive)"
>>> reading("CC1=CC2C(C(C)C)CC1C1C(=O)OC(=O)C21 (configuration not stated)")
"-10% (inactive)"
>>> reading("CC1OC(OC2CCCc3c(O)c4c(c(O)c32)C(=O)c2ccccc2C4=O)CC(N)C1O (configuration not stated)")
"-7% (inactive)"
>>> reading("O=C1NC(c2c(Cl)cccc2Cl)Nc2ccccc21 (configuration not stated)")
"-33% (inactive)"
>>> reading("OB(O)c1ccccc1C#Cc1ccccc1B(O)O")
"4% (inactive)"

* * *

Assay: NCI Yeast Anticancer Drug Screen. Data for the wt2 strain (AID 169);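 note: 0% = growth of vehicle-treated yeast cultures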
Settings: S. cerevisiae wt2 strain growth inhibition; at 3.7 µM; active compounds read high
The panel holds about 79,000 compounds, 15% with a hit somewhere; the sample as a whole holds those more often.
Readings of growth inhibition for the listed compounds
Reported Property: growth inhibition (%)

>>> reading("CO[C@@]12[C@H](COC(N)=O)C3=C(C(=O)C(C)=C(N)C3=O)N1C[C@@H]1N[C@@H]12")
4
>>> reading("COC(=O)c1oc([N+](=O)[O-])c(Cl)c1Cl")
51
>>> reading("OCCNCCOc1ccc(/C(=C(/Cl)c2ccccc2)c2ccccc2)cc1")
-48
>>> reading("CN(C)CCNc1cccc2sc3ccc(O)cc3c(=O)c12")
-2
>>> reading("Cc1ccc(S(=O)(=O)N(C)c2ccc(Cl)cc2C2=NCCc3ccccc32)cc1")
-40
>>> reading("CCCCCCCCCCCCCCCCCCNC(=S)/N=C\\C1=C(O)c2ccccc2C1=O")
-2
>>> reading("[N-]=[N+]=NC(c1ccccc1)(c1ccccc1)c1ccccc1")
-9
>>> reading("Cc1cccc2c1N=C(C(F)(F)F)CC2=O")
-2
>>> reading("CC(C)c1cccc(O)c(=O)c1")
14
>>> reading("CC(=O)C1=C(O)C2(C)c3c(O)c(C)c(O)c(C(C)=O)c3OC2(Sc2ccccc2)CC1=O (stereo unspecified)")
34
>>> reading("S=P(N1CC1)(N1CC1)N1CC1")
-2
